settings: in 2-propoxyethanol, 283.15 K
quantity_measured: solubility (mole fraction)
Reply with the value as a number alone.

Exercise: Record request: solubility (mole fraction) value, item Sc1nc2ccccc2[nH]1
Key: 0.0497

----------
settings: in n-butyl acetate, 308.15 K
quantity_measured: solubility (mole fraction)
Reply with the value as a number alone.

Exercise: Record request: solubility (mole fraction) value, item Sc1nc2ccccc2[nH]1
Key: 0.00597

----------
conditions: in sec-butanol, 308.15 K
quantity_measured: solubility (mole fraction)
Reply with the value as a number alone.

Exercise: Record request: solubility (mole fraction) value, item Sc1nc2ccccc2[nH]1
Key: 0.0126

----------
details: in isopropyl acetate, 303.15 K
quantity_measured: solubility (mole fraction)
Reply with the value as a number alone.

Exercise: Record request: solubility (mole fraction) value, item Sc1nc2ccccc2[nH]1
Key: 0.00303

----------
details: in MIBK, 293.15 K
quantity_measured: solubility (mole fraction)
Reply with the value as a number alone.

Exercise: Record request: solubility (mole fraction) value, item Sc1nc2ccccc2[nH]1
Key: 0.00913

----------
conditions: in sec-butanol, 323.15 K
quantity_measured: solubility (mole fraction)
Reply with the value as a number alone.

Exercise: Record request: solubility (mole fraction) value, item Sc1nc2ccccc2[nH]1
Key: 0.0177

----------
settings: in ethyl formate, 293.15 K
quantity_measured: solubility (mole fraction)
Reply with the value as a number alone.

Exercise: Record request: solubility (mole fraction) value, item Sc1nc2ccccc2[nH]1
Key: 0.00197

----------
conditions: in 2-methoxyethanol, 313.15 K
quantity_measured: solubility (mole fraction)
Reply with the value as a number alone.

Exercise: Record request: solubility (mole fraction) value, item Sc1nc2ccccc2[nH]1
Key: 0.0758

----------
details: in MIBK, 283.15 K
quantity_measured: solubility (mole fraction)

Exercise: Record request: solubility (mole fraction) value, item Sc1nc2ccccc2[nH]1
Key: 0.00859

----------
conditions: in 2-butoxyethanol, 308.15 K
quantity_measured: solubility (mole fraction)

Exercise: Record request: solubility (mole fraction) value, item Sc1nc2ccccc2[nH]1
Key: 0.0491

----------
conditions: in ethylene glycol, 313.15 K
quantity_measured: solubility (mole fraction)
Reply with the value as a number alone.

Exercise: Record request: solubility (mole fraction) value, item Sc1nc2ccccc2[nH]1
Key: 0.022

----------
settings: in sec-butanol, 303.15 K
quantity_measured: solubility (mole fraction)
Reply with the value as a number alone.

Exercise: Record request: solubility (mole fraction) value, item Sc1nc2ccccc2[nH]1
Key: 0.011

All values here come from BigSolDB 2.1.
